biological target: hNav 1.1 channel (Homo sapiens, UniProt P35498); construct: expressed in transfected cells; assay: Block of cloned hNav1.1 channel in CHO cells (IonWorks Quattro); assay type: cell-based; conditions: hNav1.1 in CHO cells; tonic block (TP1); read-out: IC50 Tonic block
Measurement Type: pIC50
Give bare numbers, as −log10 of the molar value.

Known pIC50 results, listed for orientation:
> print(dat)
                                   compound  numeric.readout
1  Cc1cccc(C)c1OCC(C)NC(=O)C(N)CN (stereo not drawn) [Mexiletine β amino alanine amide]             3.32
2  Cc1cccc(C)c1OCC(C)NC(=O)C(N)C(C)O (centres unmarked) [Mexiletine threonine amide]             3.63
3  Cc1cccc(C)c1OCC(C)NC(=O)C1CC(O)CN1 (centres unmarked) [Mexiletine 4-hydroxyproline amide]             3.83
4  Cc1cccc(C)c1OCC(C)NC(=O)C(N)Cc1c[nH]cn1 (centres unmarked) [Mexiletine histidine amide]             4.10
5  Cc1cccc(C)c1OCC(C)NC(=O)C(N)CCCNC(N)=O (centres unmarked) [Mexiletine citrulline amide]             3.31
6  Cc1cccc(C)c1OCC(C)NC(=O)CN(C)C (centres unmarked) [Mexiletine dimethylglycine amide]             4.52

Please examine the following record next.
Dear colleague, please send me the reported pIC50 for Cc1cccc(C)c1OCC(C)NC(=O)C(N)CO (centres unmarked) [Mexiletine serine amide] when you can. 3.62

###

assay: Systemic availability of mexiletine in the dog after oral prodrug dosing; format: in vivo, Dog (Beagle); details: 1 mg/kg mexiletine free base
Measurement Type: F (abs)
Report field: quantity (unit follows the number).

Sample records with F (abs):
> print(dat)
                                   molecule  measurement.type   result
1  Cc1cccc(C)c1OCC(C)NC(=O)CN.O=C(O)C(F)(F)F (racemic)           F (abs)  57 ± 6%
2  Cc1cccc(C)c1OCC(C)NC(=O)[C@@H](NC(=O)[C@@H](N)C(C)C)C(C)C.Cl (stereo partly shown) [Mexiletine valine-valine amide]           F (abs)  50 ± 9%
3  Cc1cccc(C)c1OCC(C)NC(=O)[C@@H](N)C(C)C.Cl (stereo partly shown) [Mexiletine valine amide]           F (abs)  35 ± 6%

In the following, a different molecule is considered.
Please report F (abs) for the following molecule: Cc1cccc(C)c1OCC(C)NC(=O)[C@@H](N)Cc1ccccc1.Cl (stereo partly shown) [Mexiletine phenylalanine amide] 38 ± 6%

###

target: hNav 1.1 channel (Homo sapiens, UniProt P35498); construct: expressed in transfected cells; test: Block of cloned hNav1.1 channel in CHO cells (IonWorks Quattro); assay type: cell-based; settings: hNav1.1 in CHO cells; frequency-dependent block at 10 Hz (TP11); read-out: IC50 10 Hz block
Field: pIC50. Provide a value for each of the molecules that follow.
Give bare numbers, as −log10 of the molar value.

> print(dat)
                                   molecule  numeric.readout
1  Cc1cccc(C)c1OCC(C)NC(=O)CN.O=C(O)C(F)(F)F (racemic)             3.97
2  Cc1cccc(C)c1OCC(C)NC(=O)CCN (stereo not drawn) [Mexiletine β alanine amide]             4.23
3  Cc1cccc(C)c1OCC(C)N.Cl (racemic) [Mexiletine hydrochloride, reference compound]             4.42

Okay, next one:
Dear colleague, please send me the reported pIC50 for Cc1cccc(C)c1OCC(C)NC(=O)C(N)CO (stereo not shown) [Mexiletine serine amide] when you can. 4.30
